System: NCI/ADR-RES
protocol_description: NCI tumour cell line growth inhibition, 48 h
Calls of active or inactive are those of the source. Cut-off read from the data, not from the text of the source: active = GI50 up to about 1.1 µM and inactive = higher.
Your answer must be one of the following: true for active, false for inactive

Worked set:
O=C1OC(=O)C(=C\c2ccc3c(c2)OCO3)/C1=C/c1ccc2c(c1)OCO2	false
C=C1C(=O)OC2CC(=C)C3CC=C(C)C3CC12 (stereo unspecified)	false
NC(N)=NCc1ccc2c(c1)OCO2	false
N#Cc1ccc(-c2nc3cc(Cl)ccc3[nH]2)cc1	false
Cc1cccc(C(O)c2ccccn2)c1O (stereo unspecified)	false
CC(=O)Nc1ccc2nc(-c3cccc(Cl)c3)cc(O)c2c1	false

In the following, a different compound is considered.
Which outcome was entered for the compound `CC(C)=NN/C(=N\c1ccc(Cl)cc1)NS(=O)(=O)c1cc(Cl)c(Oc2ccc([N+](=O)[O-])cc2Cl)c(Cl)c1` in this test? false

====

System: HCC 2998
protocol_description: NCI tumour cell line growth inhibition, 48 h
Activity calls are given as the source filed them. No stated cut-off is given here; in the data, active = GI50 up to about 1.1 µM and inactive = higher.
recorded_metric: GI50

Which GI50 reading was recorded for the compound `COc1cc(CNc2c3ccccc3nc3ccccc23)cc(OC)c1OC` ? 2.78 µM (inactive)

Consider the compound shown here: `CCOP(=O)(COCCn1nc(Br)c(=O)[nH]c1=O)OCC` What is its recorded GI50? > 100 µM (inactive)

Fill in: GI50 of `O=C1Nc2ccc(Br)cc2/C1=N/c1ccc2c(c1)OCO2` is ___ 15.7 µM (inactive)

Reported GI50 for CCOC(=O)c1c(N)sc2c1C(C(=O)OCC)CCCC2 (stereo unspecified) : what is it? 76.9 µM (inactive)

Give the measured GI50 of `N#CSc1ccc(S(N)(=O)=O)cc1` . > 100 µM (inactive)

Requested read-out: GI50. Entry: Cc1cccc(NC(=O)CC2C(=O)Nc3ccccc3S2(=O)=O)c1C (stereo unspecified) 28.1 µM (inactive)

Endpoint output: GI50 of `CSc1ccccc1NC1=NCCO1` . Value? > 100 µM (inactive)

What value of GI50 has been reported for the following compound? `CCOc1cc(-c2nc3cc(F)ccc3s2)ccc1O` 26 µM (inactive)

Which GI50 value belongs to CCOC(=O)[C@@H]1ON2OC(OC3CCCC3(c3ccccc3)c3ccccc3)C(OC(C)=O)[C@H]3OC(=O)[C@@H]1C32 (stereo partly specified) ? 35.1 µM (inactive)

Param item = `CC(C)COC1Sc2ccccc2S1` ; retrieve measured GI50. 28.7 µM (inactive)

For COc1cc(O)c2c(c1)C(=O)c1cc3c(c(O)c1C2=O)C(OC1OC(C)C(O)C(O)C1OC)C(OC)C(C)(O)C3=O (stereo unspecified) , what is its reported GI50? 4.23 µM (inactive)

====

Test system: MDA-MB-435
protocol_description: NCI tumour cell line growth inhibition, 48 h
Activity calls are given as the source filed them. Cut-off read from the data, not from the text of the source: active = GI50 up to about 1.1 µM and inactive = higher.
The compounds listed here are annotated with their GI50.

# count of solved cases: 2
Cc1cn2c(/C=C3/C(=O)Nc4ccccc43)c(-c3ccccc3)nc2s1	> 100 µM (inactive)
OCC1CCCCCCCCCCC12SCCCS2 (stereo unspecified)	> 100 µM (inactive)

Look up GI50 for this compound: O=C(CC1C=Cc2ccccc2N1C(=O)c1ccccc1)c1ccccc1 (stereo unspecified) 20.4 µM (inactive)

Quick one: GI50 for CC(NC(=O)C(N)CC(=O)O)C(=O)OC12CC3CC(CC(C3)C1)C2 (stereo unspecified) ? > 100 µM (inactive)

Which GI50 reading was recorded for the compound `COC(=O)[C@H](Cc1ccccc1)NC(=O)c1ccc(CNC(=O)/C=C/c2csc(-c3ccccc3)n2)cc1` ? 2.83 µM (inactive)

Requested field: GI50. Item: COc1cc(C2S/C(=C/c3ccccc3)C(=O)N2c2ccc([N+](=O)[O-])cc2)cc(OC)c1OC (stereo unspecified) 18 µM (inactive)

Fill in the blank: the reported GI50 of `NC(N)=NCc1ccc2c(c1)OCO2` is ____. 73.1 µM (inactive)

====

System: T47D
protocol_description: NCI tumour cell line growth inhibition, 48 h
The source made the active and inactive calls. No stated cut-off is given here; in the data, active = GI50 up to about 1.1 µM and inactive = higher.
recorded_metric: GI50

Known GI50 results, listed for orientation:
C[C@]12CC[C@H]3[C@@H](CC=C4C[C@@H](N5CCCC5)CC[C@@]43C)[C@@H]1C[C@H](N1CCOCC1)[C@@H]2O	> 100 µM (inactive)
O=C(O)c1cccc(SSc2cccc(C(=O)O)c2)c1	> 100 µM (inactive)
Cc1cccc(C(O)c2ccccn2)c1O (stereo not given)	15.7 µM (inactive)
C=CC[C@@]1(C)CCCCCCCCC[C@@](C)(CC=C)C1=O	21.2 µM (inactive)
Cc1ccc2c(/C=C/c3ccc(N(C)C)cc3)ccc(C(C)C)cc1-2	36.9 µM (inactive)

Item `N#C[BH2-][n+]1ccc(C(=O)NNCC(F)(F)F)cc1` has what recorded GI50? > 100 µM (inactive)

Consider the molecule shown here: `O=C(c1ccccc1)c1sc2c(=O)c(C(=O)c3ccccc3)c(C(=O)c3ccccc3)sc2c(=O)c1C(=O)c1ccccc1` What is its recorded GI50? 47.5 µM (inactive)

# get_value(readout='GI50', item= `Cc1cc(O)c(C(C)C)cc1SC#N` ) 17.8 µM (inactive)

Given the molecule `COP(=N[Si](C)(C)C)(OC)OC` , what is its reported GI50? > 100 µM (inactive)

Entry `CCOC(=O)c1nc2cc(C(F)(F)F)ccc2nc1Nc1ccc(C(=O)OC)s1` has what GI50? 25.7 µM (inactive)

====

HCT-15 data, read-out GI50
Give the value in µM but do not write µM after it.

Cc1ccc(C)c(NC(=O)C(=O)C(C(=O)c2ccc3ccccc3c2)C2OC(=O)c3ccccc32)c1 (stereo not given)	21.5

We now examine a further molecule.
Item: `COc1ccc(C(=O)/C=C/c2ccc(O)c(O)c2F)c(OC)c1` Test system: HCT-15 Read-out: GI50 Value: ? 0.34

====

Tested on: SNB-75
protocol_description: NCI tumour cell line growth inhibition, 48 h
Activity calls are given as the source filed them. No stated cut-off is given here; in the data, active = GI50 up to about 1.1 µM and inactive = higher.
Listing of recorded GI50 by entry.

Reference set (3 entries):
CN1CC2=C(N=C(S)NC2c2ccccc2)/C(=C/c2ccccc2)C1 (centres undefined)	48 µM (inactive)
CC(O)C(C(=O)O)N(CC1(O)OCC(O)C(O)C1O)N=O (centres undefined)	> 100 µM (inactive)
CCOC(=O)c1c(N)sc2c1C(C(=O)OCC)CCCC2 (centres undefined)	> 100 µM (inactive)

What does the data say about its GI50? Entry: CC(NC1CCCC[C@H]1O)c1ccccc1 (some centres undefined) > 100 µM (inactive)

Please report the recorded GI50 for C=C1CC(O)C2C(=C)C(=O)OC2C2C(C)C(=O)CC12 (centres undefined) . 15.1 µM (inactive)

Look up GI50 for this molecule: COCCCNC(=O)C1C(=O)N(CCCOC)C(=O)/C1=N\N (centres undefined) 38.3 µM (inactive)

Could you tell me which GI50 is on file for `C[n+]1c2ccccc2n2c3ccccc3c(NCCCn3ccnc3)c(C#N)c21` ? 1.66 µM (inactive)

If you can, please state the reported GI50 value of `CN(C)C(=O)c1ccc([N+](=O)[O-])cc1` . > 100 µM (inactive)

Consider the molecule `N#Cc1c(-c2ccccc2)[nH]c2ccccc2c1=O` and give its measured GI50. 15.1 µM (inactive)

Reported GI50, molecule `O=C1Nc2ccc(Br)cc2/C1=N/c1ccc2c(c1)OCO2` : ____ 31.6 µM (inactive)

Which GI50 is reported for this molecule? `CC(C)Cn1cnc2c(Cl)nc3ccccc3c21` 18.7 µM (inactive)

====

Tested on: HOP-62
protocol_description: NCI tumour cell line growth inhibition, 48 h
Active and inactive are the calls of the source. Cut-off read from the data, not from the text of the source: active = GI50 up to about 1.1 µM and inactive = higher.
recorded_metric: GI50

These solved cases illustrate the format of a correct answer.
NC1NCCC(=O)N1CCc1c[nH]c2ccccc12 (stereo unspecified)	19.2 µM (inactive)
OC1(c2ccc(Cl)cc2)c2ccccc2C2=NCc3ccccc3CN21 (stereo unspecified)	6.47 µM (inactive)
COc1cc(C2S/C(=C/c3ccccc3)C(=O)N2c2ccc([N+](=O)[O-])cc2)cc(OC)c1OC (stereo unspecified)	92.7 µM (inactive)
C[C@@H](NC(=O)Cn1c(Cl)nc2ccccc21)c1ccccc1	> 100 µM (inactive)
O=C(N/C(=C\c1ccc(/C=C(\NC(=O)c2ccccc2)c2nc3c(O)nc(S)nc3[nH]2)cc1)c1nc2c(O)nc(S)nc2[nH]1)c1ccccc1	> 100 µM (inactive)

Now for a further compound.
Which GI50 value belongs to `Cn1c(N=[N+]=[N-])cc(=O)n(C)c1=O` ? > 100 µM (inactive)

====

Tested on: SF-268
protocol_description: NCI tumour cell line growth inhibition, 48 h
The source made the active and inactive calls. Cut-off read from the data, not from the text of the source: active = GI50 up to about 1.1 µM and inactive = higher.
Would you mind answering with one of these outcomes? active, inactive

Reference set (3 entries):
C=Cc1nc2c(Cl)ncnc2n1Cc1ccccc1	inactive
CCCCCC[C@H]1CC(=O)C2CCCC[C@@]23CC[C@H](CCl)N13.CCCCCC[C@H]1CC(=O)C2CCCC[C@@]23C[C@H](Cl)CN13 (stereo not given in full)	inactive
CC1=NNC(=O)C1C(CC(=O)c1c[nH]c2ccccc12)C(=O)O (stereo not given)	inactive

Look up the recorded call for COC1=CC(=O)N(C(=O)C2CSC(C(CO)NC(=O)c3csc(/C=N/O)n3)=N2)C1 (stereo not given) in this test. inactive

# outcome recorded in this test, key = CS(=O)(=O)N1CC(CI)c2ccc(O)cc21 (stereo not given) inactive

Check the results log: what was the call for `CC1=NN(c2nc(N)nc(/C(C#N)=C\c3ccc([N+](=O)[O-])s3)n2)C(C)(C)C1` ? active
